# Tgt: UniProt P21397
# Sequence (P21397 whole entry): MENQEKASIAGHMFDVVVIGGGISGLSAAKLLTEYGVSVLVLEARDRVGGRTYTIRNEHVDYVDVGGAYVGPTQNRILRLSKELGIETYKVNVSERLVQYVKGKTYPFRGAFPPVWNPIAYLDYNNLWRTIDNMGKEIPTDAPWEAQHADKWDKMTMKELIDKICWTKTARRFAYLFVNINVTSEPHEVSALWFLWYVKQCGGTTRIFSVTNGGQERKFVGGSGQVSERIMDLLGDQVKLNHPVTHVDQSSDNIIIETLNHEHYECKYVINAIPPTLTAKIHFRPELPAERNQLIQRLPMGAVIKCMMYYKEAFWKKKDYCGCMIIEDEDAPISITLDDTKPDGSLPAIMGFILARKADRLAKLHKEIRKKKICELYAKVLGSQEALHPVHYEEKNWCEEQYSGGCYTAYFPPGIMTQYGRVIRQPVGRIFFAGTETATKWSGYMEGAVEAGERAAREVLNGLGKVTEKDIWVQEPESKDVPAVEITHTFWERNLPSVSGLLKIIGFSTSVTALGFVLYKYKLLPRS
# Protocol Text: MAO-A CEREP ligand profiling
# Condition Summary: compound concentration 10 uM
Assay Endpoint: inhibition at 10 µM

Return reported inhibition at 10 µM; argument: COc1ccc2cc(OCC3(C(=O)O)CN(C(=O)c4ccc(F)cc4)C3)ccc2c1
3% (not active)

----------
# Tgt: CYP2C19 (Homo sapiens)
# Sequence (P33261 whole entry): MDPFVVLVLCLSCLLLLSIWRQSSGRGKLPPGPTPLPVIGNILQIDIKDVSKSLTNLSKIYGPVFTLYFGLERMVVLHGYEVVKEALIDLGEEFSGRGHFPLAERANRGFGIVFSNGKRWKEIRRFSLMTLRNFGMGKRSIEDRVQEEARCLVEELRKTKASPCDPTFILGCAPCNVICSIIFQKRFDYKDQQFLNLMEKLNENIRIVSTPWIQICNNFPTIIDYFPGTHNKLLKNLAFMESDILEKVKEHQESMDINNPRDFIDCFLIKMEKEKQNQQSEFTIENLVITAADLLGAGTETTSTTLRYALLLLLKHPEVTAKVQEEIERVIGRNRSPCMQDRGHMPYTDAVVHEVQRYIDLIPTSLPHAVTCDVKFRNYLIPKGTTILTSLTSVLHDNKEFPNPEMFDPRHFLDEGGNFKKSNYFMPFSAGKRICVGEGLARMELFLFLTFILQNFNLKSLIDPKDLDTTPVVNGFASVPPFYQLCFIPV
# Protocol Text: CYP2C19 inhibition CEREP ligand profiling
# Condition Summary: compound concentration 10 uM
Assay Endpoint: inhibition at 10 µM

Return reported inhibition at 10 µM; argument: COc1ccc2cc(OCC3(C(=O)O)CN(C(=O)c4ccc(F)cc4)C3)ccc2c1 [PF-04418948]
5% (not active)

----------
# Tgt: Leukotriene B4 receptor 1 (Homo sapiens, UniProt Q15722)
# Sequence (Q15722 whole entry): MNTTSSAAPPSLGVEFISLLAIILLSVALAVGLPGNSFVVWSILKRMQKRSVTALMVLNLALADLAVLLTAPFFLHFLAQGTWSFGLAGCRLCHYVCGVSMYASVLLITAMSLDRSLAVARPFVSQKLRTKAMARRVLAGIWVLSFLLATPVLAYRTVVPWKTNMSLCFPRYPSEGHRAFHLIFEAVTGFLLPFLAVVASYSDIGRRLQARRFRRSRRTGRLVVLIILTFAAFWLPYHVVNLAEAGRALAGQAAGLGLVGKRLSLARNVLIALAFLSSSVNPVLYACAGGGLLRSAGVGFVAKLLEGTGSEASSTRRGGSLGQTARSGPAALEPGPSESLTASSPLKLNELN
Assay Endpoint: IC50 (µM)
Give bare numbers, in µM.

What value of IC50 on Leukotriene B4 receptor 1 (Homo sapiens, UniProt Q15722) does COc1ccc2cc(OCC3(C(=O)O)CN(C(=O)c4ccc(F)cc4)C3)ccc2c1 have?
9.7

----------
# Tgt: Voltage-gated L-type calcium channel (verapamil site) (Homo sapiens, UniProt O60840+Q01668+Q13698+Q13936)
# Protocol Text: Ca2+ channel (L, verapamil site) CEREP ligand profiling
# Assay type: protein assay
# Condition Summary: compound concentration 10 uM
Assay Endpoint: inhibition at 10 µM

Return reported inhibition at 10 µM; argument: COc1ccc2cc(OCC3(C(=O)O)CN(C(=O)c4ccc(F)cc4)C3)ccc2c1 [PF-04418948]
-5% (not active)

----------
# Tgt: CYP2D6 (Homo sapiens)
# Sequence (P10635 whole entry): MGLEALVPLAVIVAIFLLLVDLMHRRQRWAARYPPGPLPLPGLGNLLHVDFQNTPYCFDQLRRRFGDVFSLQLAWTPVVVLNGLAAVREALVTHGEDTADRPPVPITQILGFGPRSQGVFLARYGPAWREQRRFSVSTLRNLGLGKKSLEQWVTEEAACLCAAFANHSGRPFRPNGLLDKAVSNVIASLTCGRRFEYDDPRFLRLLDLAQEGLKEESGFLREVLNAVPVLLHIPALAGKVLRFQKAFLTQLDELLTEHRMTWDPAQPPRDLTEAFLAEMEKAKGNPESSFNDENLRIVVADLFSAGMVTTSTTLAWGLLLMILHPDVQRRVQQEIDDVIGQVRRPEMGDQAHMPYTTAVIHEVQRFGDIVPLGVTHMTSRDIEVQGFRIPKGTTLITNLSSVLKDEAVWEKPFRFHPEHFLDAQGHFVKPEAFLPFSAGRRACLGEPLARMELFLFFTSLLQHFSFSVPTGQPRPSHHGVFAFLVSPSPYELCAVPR
# Protocol Text: CYP2D6 inhibition CEREP ligand profiling
# Condition Summary: compound concentration 10 uM
Assay Endpoint: inhibition at 10 µM

Return reported inhibition at 10 µM; argument: COc1ccc2cc(OCC3(C(=O)O)CN(C(=O)c4ccc(F)cc4)C3)ccc2c1
18% (not active)

----------
# Tgt: D(1A) dopamine receptor (Homo sapiens, UniProt P21728)
# Sequence (P21728 whole entry): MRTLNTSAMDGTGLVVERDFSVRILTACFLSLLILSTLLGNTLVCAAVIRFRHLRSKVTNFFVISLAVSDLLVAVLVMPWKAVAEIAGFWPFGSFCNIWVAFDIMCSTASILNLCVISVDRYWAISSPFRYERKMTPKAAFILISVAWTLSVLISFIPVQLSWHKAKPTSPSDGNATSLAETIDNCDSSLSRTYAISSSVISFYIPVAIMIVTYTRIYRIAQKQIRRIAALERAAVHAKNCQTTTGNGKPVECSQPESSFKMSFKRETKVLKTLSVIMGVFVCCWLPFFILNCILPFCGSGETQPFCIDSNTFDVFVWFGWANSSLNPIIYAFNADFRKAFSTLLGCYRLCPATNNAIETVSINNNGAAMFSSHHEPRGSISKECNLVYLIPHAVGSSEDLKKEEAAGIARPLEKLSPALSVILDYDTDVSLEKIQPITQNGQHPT
# Protocol Text: GPCRScan assay: inhibition of D1
Assay Endpoint: pKi
Answers are plain numbers, as −log10 of the molar value.

Return reported pKi; argument: O=C(c1ccc(F)cc1)N1CC(COc2ccc(Br)cc2)(C(=O)O)C1
5.00
